# target-entity: Carboxy-terminal domain RNA polymerase II polypeptide A small phosphatase 1 (Homo sapiens)
# Sequence (Q9GZU7 whole entry, the tested form may be a part): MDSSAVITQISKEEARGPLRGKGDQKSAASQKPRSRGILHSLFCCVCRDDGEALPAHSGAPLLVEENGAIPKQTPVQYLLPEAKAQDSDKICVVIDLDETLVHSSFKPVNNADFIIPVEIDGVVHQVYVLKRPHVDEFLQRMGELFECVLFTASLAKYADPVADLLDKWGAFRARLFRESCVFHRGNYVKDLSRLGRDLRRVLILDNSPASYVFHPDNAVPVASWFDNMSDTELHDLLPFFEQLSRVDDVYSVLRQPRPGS
metric-name: pIC50
Numbers only, as −log10 of the molar value.

Q. I'm curious: which pIC50 was measured for O=C(C1=CC2=C(CCC2)S1(=O)=O)N1CCN(S(=O)(=O)c2ccc(F)cc2)CC1 tested on Carboxy-terminal domain RNA polymerase II polypeptide A small phosphatase 1 (Homo sapiens)?
A. 3.66

Hey, just so you know, these numbers are from BindingDB's records for doi:10.1021/acs.jmedchem.1c01655.
